Each entry below carries its recorded abundance fitness.
B1: Ankyrin repeat and SAM domain-containing protein 6, residues 774 to 836; numbered along this chain, Q68DC2 (parent)
chain: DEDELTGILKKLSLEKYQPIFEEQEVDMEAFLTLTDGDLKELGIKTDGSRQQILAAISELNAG

- Variants of: B1
- ASSAY_DETAILS: abundance fitness (aPCA) (normalised: wild type 0, dead -1); higher = more abundant; growth selection in yeast, the domain comes from the species named
- PROTOCOL_CONDITIONS: Homo sapiens
ASSAY_METRIC: abundance fitness

* I20P | -0.617
* N61G | -0.186
* Q18F | -0.407
* G7R | 0.108
* L32K | 0.264
* E4H | -0.31
* K45P | -0.044
* E25S | -0.08
* E25R | -0.147
* L34F | -0.298
* I44P | -0.746
* L12N | -0.402
* L32A | -0.097
* Q18C | -0.146
* P19V | -0.346
* D36K | -0.449
* Q52M | -0.302
* L34T | -0.556
* E15P | -0.687
* D27S | -0.075
* R50W | -0.706
* F31V | -0.342
* D27K | -0.212
* Q52Y | -0.574
* M28I | -0.202
* A62P | -0.294
* L34N | -0.483
* L14C | -0.64
* D36L | -0.702
* E15N | -0.492
* L14P | -0.845
* A55E | 0.031
* L5R | -0.71
* E22S | -0.059
* A56T | -0.113
* F21A | -0.348
* A56C | 0.007
* L34H | -0.356
* P19D | -0.023
* I20C | 0.015
* I8Y | -0.186
* Q52F | -0.667
* D27H | -0.282
* T6V | -0.353
* L12I | 0.254
* E29H | -0.356
